// data source = ChEMBL document CHEMBL1201862

readout: AC50

Recorded AC50 for CC(=O)C1C(c2ccccc2OC(F)F)NC(=O)NC1(O)C(F)(F)F (stereo unspecified) on UniProt P11712 was 15.8 µM (inconclusive)

Recorded AC50 for `C[C@@H]1CC[C@H]2C(=O)NC[C@@H](O)CN2[C@@H]1c1ccc(Br)cc1` on UniProt P11712 was 5.01 µM (inconclusive)

Recorded AC50 for `O=C(c1cccs1)n1nc(-c2ccc(Cl)cc2)nc1NCc1ccco1` on UniProt P11712 was 12.6 µM (inconclusive)

Recorded AC50 for `COc1cc(Cn2cnnn2)ccc1O` on UniProt P11712 was 0.178 µM (inconclusive)

Recorded AC50 for `CCOC(=O)Nc1nc(-c2ccccc2)c(C)s1` on UniProt P11712 was 7.94 µM (inconclusive)

Recorded AC50 for `N[C@@H](C(=O)O)c1ccc(P(=O)(O)O)cc1` on UniProt P11712 was 31.6 µM (inconclusive)

###

assay: cells; format: functional
Calls of active or inactive are those of the source. How the calls were made is not given here.
Answer each item with its documented IC50.

The recorded IC50 for `O=C(N/N=C/c1cccs1)c1cncc(Br)c1` is 10.7 µM (active)

The recorded IC50 for `COc1cc2[nH]c(Cl)c([N+](=O)[O-])c2cc1OC` is 23.1 µM (active)

The recorded IC50 for `CCOC(=O)COc1ccc2c(=O)c(-c3ccccc3OC)coc2c1` is 1.45 µM (active)

The recorded IC50 for `O=C(O)c1ccc(NS(=O)(=O)/C=C/c2ccccc2)cc1O` is 16.6 µM (active)

The recorded IC50 for `O=C(COc1cccc2ccccc12)Nc1nc2ccccc2[nH]1` is 6.2 µM (active)

The recorded IC50 for `O=C(Nc1nc(-c2ccccn2)cs1)c1ccc([N+](=O)[O-])o1` is 4.38 µM (active)

The recorded IC50 for `COC(=O)c1cc(-c2ccc(OC)cc2)on1` is 3.5 µM (active)

###

Molecular target: Aminopeptidase N (Plasmodium falciparum FcB1/Columbia)
Sequence (O96935 whole entry): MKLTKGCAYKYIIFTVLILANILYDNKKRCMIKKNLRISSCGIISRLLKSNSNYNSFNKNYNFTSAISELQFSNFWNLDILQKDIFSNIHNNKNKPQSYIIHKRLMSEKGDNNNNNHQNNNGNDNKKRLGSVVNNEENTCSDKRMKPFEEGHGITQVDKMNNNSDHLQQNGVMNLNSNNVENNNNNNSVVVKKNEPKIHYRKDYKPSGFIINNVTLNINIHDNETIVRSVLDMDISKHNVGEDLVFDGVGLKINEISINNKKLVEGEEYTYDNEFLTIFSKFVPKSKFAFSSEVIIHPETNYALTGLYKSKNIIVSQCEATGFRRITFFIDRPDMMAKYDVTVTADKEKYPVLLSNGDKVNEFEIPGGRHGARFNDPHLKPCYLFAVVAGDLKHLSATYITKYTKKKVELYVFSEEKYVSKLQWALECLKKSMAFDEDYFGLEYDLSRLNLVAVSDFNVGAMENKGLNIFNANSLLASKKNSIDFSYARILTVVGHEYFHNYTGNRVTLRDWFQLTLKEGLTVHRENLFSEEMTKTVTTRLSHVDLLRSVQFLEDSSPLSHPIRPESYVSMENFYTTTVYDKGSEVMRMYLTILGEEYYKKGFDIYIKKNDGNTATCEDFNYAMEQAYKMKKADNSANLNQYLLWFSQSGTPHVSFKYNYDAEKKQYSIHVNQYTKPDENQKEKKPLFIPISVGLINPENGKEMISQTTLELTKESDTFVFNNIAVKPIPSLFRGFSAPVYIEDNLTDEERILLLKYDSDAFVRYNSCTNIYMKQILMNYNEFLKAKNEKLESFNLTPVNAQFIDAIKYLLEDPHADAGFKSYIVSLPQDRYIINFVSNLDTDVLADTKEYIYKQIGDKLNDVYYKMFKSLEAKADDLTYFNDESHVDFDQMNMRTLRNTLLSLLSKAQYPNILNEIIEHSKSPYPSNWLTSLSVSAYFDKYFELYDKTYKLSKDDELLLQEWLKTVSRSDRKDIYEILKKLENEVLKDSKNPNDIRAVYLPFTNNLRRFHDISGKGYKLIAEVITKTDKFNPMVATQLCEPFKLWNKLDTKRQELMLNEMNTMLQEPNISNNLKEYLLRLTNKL
Assay: malaria alanyl aminopeptidase activity blockers – biochemical, fluorogenic H-Leu-NHMec substrate, 1536-well (AID 1445)
Design: species or system Plasmodium falciparum 3D7, 3D7
Active and inactive are the calls of the source. No rule for the calls is given here.
Answer each item with its documented IC50.

Recorded IC50 for CC(=O)N1N=C(c2c(-c3ccccc3)c3cc(Br)ccc3[nH]c2=O)CC1c1ccco1 (configuration not stated) on Aminopeptidase N (Plasmodium falciparum FcB1/Columbia) was 58.8 µM (active)

Recorded IC50 for `Sc1nnc(-c2cc3c(s2)-c2ccccc2CC3)o1` on Aminopeptidase N (Plasmodium falciparum FcB1/Columbia) was 67.4 µM (active)

Recorded IC50 for `CCC(C)(C)NC(=O)CN(Cc1ccc2c(c1)OCO2)C(=O)CCC(=O)Nc1ccccn1` on Aminopeptidase N (Plasmodium falciparum FcB1/Columbia) was 67 µM (active)

Recorded IC50 for CC(=O)Nc1cccc(NC(=O)C2CCCN2C(=O)Nc2ccc(Cl)cc2)c1 (configuration not stated) on Aminopeptidase N (Plasmodium falciparum FcB1/Columbia) was 84.1 µM (active)

Recorded IC50 for `CC(C)OCCCn1c(-c2ccco2)nc2nc3ccccc3nc21` on Aminopeptidase N (Plasmodium falciparum FcB1/Columbia) was 92.6 µM (active)

Recorded IC50 for `O=C(NCCC1=CCCCC1)C1CCN(S(=O)(=O)c2ccc(Br)s2)CC1` on Aminopeptidase N (Plasmodium falciparum FcB1/Columbia) was 13.2 µM (active)

Recorded IC50 for `COc1ccc(NC(=S)NNc2ccc(S(=O)(=O)Nc3ccccc3C(=O)O)cc2[N+](=O)[O-])cc1` on Aminopeptidase N (Plasmodium falciparum FcB1/Columbia) was 4.17 µM (active)
